From: the nanobody polyreactivity screen of Harvey et al. (2022)

Assay: yeast display, Sf9 membrane polyspecificity reagent, FACS + sequencing; frameworks hold sequencing errors
Observed property: polyreactivity (PSR sort gate)

Would you please look over these solved cases?
{"columns": ["Sequence", "polyreactivity (PSR sort gate)"],
 "data": [
  ["QVQLVESGGGLVQAGGSLRLSCAASGSIFTDNVMGWYRQAPGKERELVAAITYSAASTYYADSVKGRFTISRDNAKNTVYLQMNSLKPEDTAVYYCNARIIYRKWLFRSGTFNYWGQGTQVTVSS", "low polyreactivity"],
  ["QDQLVESGGGLVQAGGSLRLSCAASGFIFGRYTMGWYRQAPWKERELVAAISGSDVSTYYADSVKGRFTISRDNAKNTVYIQMNSLKPEDTAVYYCAADAPWAYYEYDYWGQGTQVTVSS", "low polyreactivity"],
  ["QVQLVESGGGLVQAGGSLRLSCAASGRIIRRYAMGWYRQAPGKERELVAAISRSGGSTYYADSVKGRFTISRDNAKNTVFLQMKRLKPEDTAVYYCNRRYITYNYDYWGQVTQVTVSS", "high polyreactivity"],
  ["QDQLVESGGGVVQAGGSLRLSCAASGSIFAYNAMGWYRQAPGKERELVAAITDSGGSTFYADSVKGRFTISRDNAKNTVYLQMNSLKPEDTAVYYCATSGDRLVWGQGTQVTVSS", "low polyreactivity"],
  ["QVQLVESGGGLVQAGGSLRLSCAASGFTFVLYAMGWYRQAPGKERELVADITEGGDNTYYADSVKGRFTISRDNAKNTVYLQMNSLKPEDTAVYYCNARASRLYPPYDYWGQGTQVTVSS", "high polyreactivity"]
]}

Enquiry: Identify measured polyreactivity (PSR sort gate) corresponding to QVQLVESGGGLVQAGGSLRLSCAASGFTFYWYTMGGYRQAPGKDRELVAAISGSGGRTYYADSVKGRFTISRDNAKKTVYLQMNSLKPEDTAVYYCAARGRYAYPRYGYYPVNYWGQVTQVTVSS
Return: high polyreactivity

Enquiry: Identify measured polyreactivity (PSR sort gate) associated with QVQLVESGGGLVQAGGSLRLSCAASGSTFAVNVMGWYRQAPGKERELVATITYRDGRTYYADSVKGRFTISRDNAKNTVYLQMNSLKPEDTAVYYCAADDEYKQEAEMDSWGQGTLVTVSS
Return: low polyreactivity

Enquiry: Using known records, supply polyreactivity (PSR sort gate) for QVQLVESGGGLVQAGGSRRLSCAASGFTFYWYAMGWYRQAPGKERELVAAITRGGRTYYADSVKGRFTISRDNAKNTVYLQMNSLKPEDTAVYYCNAVEFTIAWCYTMDYWGQGIQVTVSS
Return: high polyreactivity

Enquiry: Read off the recorded polyreactivity (PSR sort gate) for QVQRVESGGGLVQAGGSLRLSCAASGYIFKYYAMGWYRHSPGKVRELVAAITGGVSTNYADSVKGRFTISRDNAKNTVYLQMNSLKPEDTAVYYCAAAITPSYTGSEYDYWGQGTQVTVSS
Return: low polyreactivity

Enquiry: Look up polyreactivity (PSR sort gate) of QVQLVESGGGLVQAGGSLRLSCAASGSIFYIYAMGWYRKAPGKERELVASIDSGDSTNYADSVKGRFTISRDNAKNTVYLQMNSLKPEDTAVYYCNADTFSELTYYLYIGMDYWGQGTQVTVSS and report it.
Return: low polyreactivity

Enquiry: // fetch polyreactivity (PSR sort gate) given entry QVQLVESGGGLVQAGGSLRLSCAASGSTFTPYAMGWNRQAPGKERELVAAIRRGGSTNYADSVKGRFTISRDNEKNTVYLQMNSLKPEDTAVYYCAATKRRFVKFDYWGQGTQVTVSS
Return: low polyreactivity
